Taken from paper PMC1257591.

Biological target: SULT1A1*2 (Homo sapiens, UniProt P50225, R213H)
Sequence (P50225 whole entry R213H): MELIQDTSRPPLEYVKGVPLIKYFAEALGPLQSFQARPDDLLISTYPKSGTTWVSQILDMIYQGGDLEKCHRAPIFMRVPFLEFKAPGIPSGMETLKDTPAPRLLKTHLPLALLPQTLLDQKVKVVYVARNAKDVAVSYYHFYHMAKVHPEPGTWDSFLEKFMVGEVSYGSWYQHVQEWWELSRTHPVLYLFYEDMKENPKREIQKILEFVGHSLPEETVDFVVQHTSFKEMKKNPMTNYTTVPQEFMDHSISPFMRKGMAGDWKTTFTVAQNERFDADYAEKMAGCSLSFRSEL
Test: Kinetics of 3-OH-BaP sulfonation by expressed SULT1A1*2
Details: expressed SULT1A1*2; substrate inhibition
property name: Ki

[[record]]
compound = "Oc1ccc2ccc3c4ccccc4cc4ccc1c2c43 [Compound 3-OH-BaP, 3-hydroxybenzo[a]pyrene]"
result = "0.16 µM"


---

Target: SULT1E1 (Homo sapiens, UniProt P49888)
Construct: made in house; host or cells: Escherichia coli
Sequence (P49888 1-294): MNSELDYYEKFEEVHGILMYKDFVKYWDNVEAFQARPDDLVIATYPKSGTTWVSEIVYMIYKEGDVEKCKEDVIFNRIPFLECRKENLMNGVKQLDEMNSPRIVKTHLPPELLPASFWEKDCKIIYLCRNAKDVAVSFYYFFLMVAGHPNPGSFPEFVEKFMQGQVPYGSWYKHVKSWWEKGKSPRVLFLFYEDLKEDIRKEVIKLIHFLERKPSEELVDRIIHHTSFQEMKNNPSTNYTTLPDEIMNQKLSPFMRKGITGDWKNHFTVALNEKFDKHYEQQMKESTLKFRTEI
Test: Inhibition of 3-OH-BaP sulfotransferase activity by OH-PCBs with cDNA-expressed SULT1E1
Format: biochemical
Details: 0.1 μM 3-OH-BaP; mean of duplicates; read-out: IC50 SULT1E1
pIC50: −log10 of the molar value.
Hi, to clarify the labels: fulfilled covers pIC50 from 6 upward, not fulfilled covers anything below 6.

[[record]]
compound = "Oc1ccc(-c2cc(Cl)cc(Cl)c2)cc1Cl [Compound B2, 4′-OH-CB36]"
cat = "fulfilled"

[[record]]
compound = "Oc1c(Cl)cc(-c2cccc(Cl)c2)cc1Cl [Compound C2, 4-OH-CB36]"
cat = "fulfilled"

[[record]]
compound = "Oc1ccc(-c2c(Cl)c(Cl)cc(Cl)c2Cl)cc1Cl [Compound B5, 4′-OH-CB112]"
cat = "not fulfilled"

[[record]]
compound = "Oc1c(Cl)cc(-c2cc(Cl)ccc2Cl)cc1Cl [Compound C6, 4′-OH-CB72]"
cat = "fulfilled"

[[record]]
compound = "Oc1ccc(-c2c(Cl)cc(Cl)cc2Cl)cc1Cl [Compound B3, 4′-OH-CB69]"
cat = "not fulfilled"

[[record]]
compound = "Oc1ccc(-c2ccc(Cl)c(Cl)c2)cc1Cl [Compound B1, 4′-OH-CB35]"
cat = "fulfilled"

[[record]]
compound = "Oc1c(Cl)cc(-c2c(Cl)c(Cl)cc(Cl)c2Cl)cc1Cl [Compound C5, 4′-OH-CB165]"
cat = "not fulfilled"

